Procedure Summary: inhibitors of HIV fusion peptide binding, primary screen, biochemical, uHTS, fluorescence dequenching (AID 1986)
Assay Setup: cell-free peptide binding, 30 min, at 20 µM
Hit rate of the full screen: of about 290,000 compounds, about 890 (0.31%) were called active. Rule as the data show it: active = inhibition mostly above about 52% (no sharp cut-off); inactive = mostly below about 76%. The entries come from a sample that favours actives as a whole.
Pick one: active, inactive

Challenge: Query: recorded result category for `COc1ccc(/C=C/C(=O)NC(=S)Nc2cc3oc4ccccc4c3cc2OC)cc1` in this test
Response given: inactive

Challenge: // param item: `O=C(NN=C1CCN(Cc2ccccc2)CC1)c1cc2ccccc2cc1O` ; yields the recorded call
Response given: active

Challenge: Please share the test call associated with `CCOC(=O)C1CCN(C(=O)Nc2ccc3nc(-c4ccco4)c(-c4ccco4)nc3c2)CC1` .
Response given: active

Challenge: Could you please tell me the result logged for CC(C)(C)C1C/C(=C/c2ccccn2)C(=O)/C(=C/c2ccccn2)C1 (centres undefined) in this assay?
Response given: inactive

Challenge: What classification did `Cc1ccc(CS(=O)(=O)Cc2ccc(C(=O)NCCc3ccccc3)o2)cc1` end up with in this test?
Response given: inactive

Challenge: Identify the outcome logged in this assay for the compound shown: `COC(=O)c1cc(C(=O)c2ccc(Cl)cc2)n2c(=O)/c(=C\N(C)C)sc12`
Response given: active

Challenge: Just curious, what result did `Cc1cccc(C(=O)N/C(=C/c2ccco2)C(=O)N2CCCCCC2)c1` get here?
Response given: inactive

Challenge: Can you look up the reported call for `O=C(NN=C1CCN(Cc2ccccc2)CC1)c1cc(Br)ccc1O` for me?
Response given: inactive

Challenge: Query: recorded result category for `CCOc1ccc(-c2nn(-c3ccccc3)cc2/C=C2\SC(=S)N(Cc3ccco3)C2=O)cc1` in this test
Response given: inactive

Challenge: What is the recorded call for this compound in the test? Cn1cccc1/C=C1\CC(C(C)(C)C)C/C(=C\c2cccn2C)C1=O (centres undefined)
Response given: inactive

Challenge: Fill in: this test's call for `O=C1/C(=C\c2ccco2)CCC/C1=C\c1ccco1` is ___
Response given: inactive

Challenge: Recorded test call requested for `Cc1cc(S(=O)(=O)N2CCCC2)c(C)s1`
Response given: inactive

Challenge: I would be grateful if you could indicate the recorded call for `CCOC(=O)C1CCN(C(=O)Nc2ccc3nc(C)c(C)nc3c2)CC1` .
Response given: inactive

Challenge: Could you check what this test reported for `CCN(CC)S(=O)(=O)c1ccc(C(=O)OCCN2C(=O)c3cccc4c(N5CCOCC5)ccc(c34)C2=O)cc1` ?
Response given: inactive

Challenge: Recorded call for `CCCN1C=CC(=C/C=C(\C#N)C(=O)OCC)C=C1` ?
Response given: inactive

Challenge: Hey, what did the test say about `CN(C)/C=C/C(=O)c1ccc(S(=O)(=O)c2ccccc2)cc1` ?
Response given: inactive

Challenge: Look up the recorded call for `Cc1ccc(Cc2c(C)[nH]c(=S)[nH]c2=O)cc1` in this test.
Response given: inactive

Challenge: Recorded test call requested for `CCCN(CCC)S(=O)(=O)c1ccc(C(=O)OCCN2C(=O)c3cccc4c(N5CCOCC5)ccc(c34)C2=O)cc1`
Response given: active

Challenge: Could you please tell me the result logged for `O=C1c2cccc3c(N4CCCCC4)ccc(c23)C(=O)N1CCO` in this assay?
Response given: inactive

Challenge: State the result this test recorded for Cc1cccc2cc(C(c3nnnn3Cc3ccc4c(c3)OCO4)N3CCCC3)c(=O)[nH]c12 (centres undefined) .
Response given: inactive

Challenge: How was `O=C(O)c1cccc(Cn2c(Cl)c(/C=N/NC(=O)c3ccccc3O)sc2=O)c1` classified in this test?
Response given: inactive

Challenge: Each compound tested received a call. Report the one for `O=C1c2cccc3c(N4CCCCC4)ccc(c23)C(=O)N1c1ccc(O)cc1` .
Response given: inactive

Challenge: Short answer needed: outcome of this test for `O=C(OCCN1C(=O)c2cccc3c(N4CCOCC4)ccc(c23)C1=O)c1cccc(Cl)c1` ?
Response given: inactive

Challenge: Dear all, I need the recorded test outcome for `O=C(N=Nc1c(O)[nH]c2ccccc12)c1ccc(CN2CCOCC2)cc1` , thank you.
Response given: inactive

Challenge: Given CC1C/C(=C/c2cccs2)C(=O)/C(=C/c2cccs2)C1 (centres undefined) , state the outcome it received in this test.
Response given: active

Challenge: Dear colleague, could you share the recorded outcome for COc1ccc(C2CC(c3c(-c4ccccc4)c4cc(Cl)ccc4[nH]c3=O)=NN2C(=O)CCC(=O)O)cc1 (centres undefined) when you have a moment?
Response given: inactive

Challenge: Given CC1C/C(=C/c2ccncc2)C(=O)/C(=C/c2ccncc2)C1 (centres undefined) , state the outcome it received in this test.
Response given: inactive

Challenge: Tell me the assay call for `C=CCN1C=CC(=C/C=C(/C#N)C(=O)OCC)C=C1` please.
Response given: inactive

Challenge: Can you look up the reported call for `COc1cc2c(cc1NC(=O)CSc1nnc(Cc3cccs3)n1C)oc1ccccc12` for me?
Response given: inactive

Challenge: What outcome does the record of this test show for Cc1ccc(C)c(N(C(=O)c2csnn2)C(C(=O)NC2CCCCC2)c2ccncc2)c1 (centres undefined) ?
Response given: inactive

Challenge: // param item: `COc1ccc(Cc2nc3ccccc3[nH]c2=O)cc1` ; yields the recorded call
Response given: inactive

Challenge: Lab log entry: `NC(=O)C1CCN(C(=O)COc2ccc3c4c(c(=O)oc3c2)CCCC4)CC1` — outcome as called in the assay?
Response given: inactive

Challenge: Recorded test outcome, item `COc1ccc(CC(=O)Nc2c(C(=O)N3CCN(c4ncccn4)CC3)oc3ccccc23)cc1`
Response given: inactive

Challenge: Which outcome was entered for the compound O=S(=O)(NCCC1CC1(Cl)Cl)c1ccccc1 (centres undefined) in this test?
Response given: inactive

Challenge: Could you kindly confirm the outcome this assay logged for `Cn1nnnc1SCc1ccccc1F` ?
Response given: inactive

Challenge: How did this test come out for `Cc1ccccc1-n1cc(CNCc2c(C(=O)N(C)C)nc3ccc(Cl)cn23)cn1` ?
Response given: inactive

Challenge: Record request — test call for `O=C(NN=C1CCN(Cc2ccccc2)CC1)c1ccccc1O`
Response given: inactive

Challenge: Short answer needed: outcome of this test for `O=C1c2cccc3c(N4CCCCC4)ccc(c23)C(=O)N1c1ccccc1O` ?
Response given: active

Challenge: Assay outcome for CC(CCC(=O)O)C1CC[C@H]2C3CCC4CC(=O)CCC4(C)[C@H]3CC(=O)C12C (some centres undefined) : what was it?
Response given: inactive
